The reported numbers originate from BindingDB's records for doi:10.1021/jm051187d.

MEASUREMENT TARGET: Thymidylate synthase (Escherichia coli (strain K12), UniProt P0A884)
Sequence (P0A884 whole entry): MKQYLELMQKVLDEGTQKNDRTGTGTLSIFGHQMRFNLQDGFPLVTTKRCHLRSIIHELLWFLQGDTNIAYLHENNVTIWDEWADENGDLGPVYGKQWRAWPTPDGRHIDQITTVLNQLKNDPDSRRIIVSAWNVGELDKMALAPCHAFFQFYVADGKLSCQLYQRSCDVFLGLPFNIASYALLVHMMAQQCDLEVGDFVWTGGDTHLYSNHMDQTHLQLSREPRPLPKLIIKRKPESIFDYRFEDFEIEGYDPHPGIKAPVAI
TEST DESCRIPTION: Thymidylate Synthase (TS) Assay
PROPERTY NAME: Ki

Give the measured Ki of `O=C1OC(c2cc(Br)c(O)c(Br)c2)(c2cc(Br)c(O)c(Br)c2)c2cccc3cccc1c23` . > 11 mM
